Taken from ChEMBL document CHEMBL5506027.

Readings of clearance for the listed compounds
test: Clearance in rat at 1 mg/kg, iv measured upto 24 hrs by LC-MS/MS anlaysis; type: ADME, organism-based; conditions: in vivo
measured-quantity: clearance (mL/min/kg)

compound: FC(F)c1c(Br)c(Br)cc2c1nc(N1CCNCC1)n2C1CCOCC1
measured-quantity: clearance
unit-abbrev: mL/min/kg
measured-number: 70
//
compound: Cc1c(Br)c(Br)c2c3c1nc(N1CCNCC1)n3CCC2 [SEL-120 FREE BASE]
measured-quantity: clearance
unit-abbrev: mL/min/kg
measured-number: 246

---

target: Dual specificity tyrosine-phosphorylation-regulated kinase 1A (Homo sapiens, UniProt Q13627)

molecule: FC(F)c1c(Br)c(Br)cc2c1nc(N1CCNCC1)n2C1CCOCC1
IC50 / µM: 0.158

molecule: Cc1c(Br)c(Br)c2c3c1nc(N1CCNCC1)n3CCC2 [SEL-120 FREE BASE]
IC50 / µM: 0.332

---

experiment: Oral bioavailability in dog at 3 mg/kg measured upto 24 hrs by LC-MS/MS analysis; format: ADME, organism-based, Canis lupus familiaris; conditions: in vivo
measured-quantity: bioavailability (%)

compound: Cc1c(Br)c(Br)c2c3c1nc(N1CCNCC1)n3CCC2 [SEL-120 FREE BASE]
unit-abbrev: %
measured-number: 136

---

target: Casein kinase I isoform alpha (Homo sapiens, UniProt P48729); test: Inhibition of CSNK1A1 (unknown origin) by ADP-Glo assay
Sequence (P48729 whole entry, canonical isoform): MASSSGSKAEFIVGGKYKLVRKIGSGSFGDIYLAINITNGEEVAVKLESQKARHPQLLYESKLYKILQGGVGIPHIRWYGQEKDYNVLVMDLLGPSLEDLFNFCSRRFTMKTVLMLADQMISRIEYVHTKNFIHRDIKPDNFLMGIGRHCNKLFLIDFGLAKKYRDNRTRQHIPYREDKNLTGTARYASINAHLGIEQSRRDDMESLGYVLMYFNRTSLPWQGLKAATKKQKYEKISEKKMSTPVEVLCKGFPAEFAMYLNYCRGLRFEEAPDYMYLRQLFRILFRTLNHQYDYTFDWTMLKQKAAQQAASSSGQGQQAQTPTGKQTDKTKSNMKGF
Readings of IC50 for the listed molecules
measured-quantity: IC50 (nM)

molecule: Cc1c(Br)c(Br)c2c3c1nc(N1CCNCC1)n3CCC2 [SEL-120 FREE BASE]
unit-abbrev: nM
measured-number: 1390
//
molecule: FC(F)c1c(Br)c(Br)cc2c1nc(N1CCNCC1)n2C1CCOCC1
unit-abbrev: nM
measured-number: 132

---

target: Cyclin-dependent kinase 19 (Homo sapiens); test: Inhibition of CDK19 (unknown origin) by ADP-Glo assay
Sequence (Q9BWU1 whole entry): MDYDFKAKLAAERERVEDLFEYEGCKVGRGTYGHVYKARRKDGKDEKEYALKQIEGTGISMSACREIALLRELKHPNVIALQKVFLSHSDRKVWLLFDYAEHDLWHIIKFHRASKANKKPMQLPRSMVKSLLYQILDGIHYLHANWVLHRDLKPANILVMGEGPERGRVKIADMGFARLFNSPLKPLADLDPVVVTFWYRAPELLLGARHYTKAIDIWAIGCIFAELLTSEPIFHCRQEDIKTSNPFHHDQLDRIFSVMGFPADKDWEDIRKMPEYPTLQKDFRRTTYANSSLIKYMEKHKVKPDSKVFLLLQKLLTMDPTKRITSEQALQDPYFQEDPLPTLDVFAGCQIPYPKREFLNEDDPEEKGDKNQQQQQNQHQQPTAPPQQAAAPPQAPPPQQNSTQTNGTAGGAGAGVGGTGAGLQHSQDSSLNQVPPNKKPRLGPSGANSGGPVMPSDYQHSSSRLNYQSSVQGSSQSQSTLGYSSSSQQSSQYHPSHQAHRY
pIC50: −log10 of the molar value.
measured-quantity: pIC50

compound: FC(F)c1c(Br)c(Br)cc2c1nc(N1CCNCC1)n2C1CCOCC1
study-system: Cyclin-dependent kinase 19 (Homo sapiens)
measured-quantity: pIC50
measured-number: 7.60

compound: Cc1c(Br)c(Br)c2c3c1nc(N1CCNCC1)n3CCC2 [SEL-120 FREE BASE]
study-system: Cyclin-dependent kinase 19 (Homo sapiens)
measured-quantity: pIC50
measured-number: 7.60

---

assay: Volume of distribution at steady state in rat at 1 mg/kg, iv measured upto 24 hrs by LC-MS/MS anlaysis; format: ADME, organism-based; conditions: in vivo, read-out: Vdss

compound: FC(F)c1c(Br)c(Br)cc2c1nc(N1CCNCC1)n2C1CCOCC1
Vd: 13.3 L/kg

compound: Cc1c(Br)c(Br)c2c3c1nc(N1CCNCC1)n3CCC2 [SEL-120 FREE BASE]
Vd: 32.3 L/kg

---

experiment: Cmax in dog at 3 mg/kg, po measured upto 24 hrs by LC-MS/MS analysis; type: ADME, organism-based, Canis lupus familiaris; settings: in vivo

compound: Cc1c(Br)c(Br)c2c3c1nc(N1CCNCC1)n3CCC2 [SEL-120 FREE BASE]
Cmax, ng/mL: 215

---

target: Cytochrome P450 1A2 (Homo sapiens, UniProt P05177); assay: Inhibition of CYP1A2 (unknown origin) in absence of NADPH; assay type: ADME
Sequence (P05177 whole entry): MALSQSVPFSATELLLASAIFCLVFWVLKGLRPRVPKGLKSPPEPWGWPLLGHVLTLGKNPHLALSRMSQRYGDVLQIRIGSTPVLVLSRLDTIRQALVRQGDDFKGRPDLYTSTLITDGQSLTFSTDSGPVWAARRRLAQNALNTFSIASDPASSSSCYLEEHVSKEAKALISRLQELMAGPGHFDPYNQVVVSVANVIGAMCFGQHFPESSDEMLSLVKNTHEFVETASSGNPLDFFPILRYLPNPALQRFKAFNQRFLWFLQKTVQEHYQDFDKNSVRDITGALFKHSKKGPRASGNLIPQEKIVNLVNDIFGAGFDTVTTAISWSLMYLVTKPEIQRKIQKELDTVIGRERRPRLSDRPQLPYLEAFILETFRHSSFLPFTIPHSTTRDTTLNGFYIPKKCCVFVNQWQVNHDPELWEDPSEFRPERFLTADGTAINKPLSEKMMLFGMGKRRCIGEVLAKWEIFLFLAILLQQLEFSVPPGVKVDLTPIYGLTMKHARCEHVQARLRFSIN
pIC50: −log10 of the molar value.

compound: Cc1c(Br)c(Br)c2c3c1nc(N1CCNCC1)n3CCC2 [SEL-120 FREE BASE]
pIC50: 6.80
--
compound: FC(F)c1c(Br)c(Br)cc2c1nc(N1CCNCC1)n2C1CCOCC1
pIC50: 5.07

---

test: Half-life in rat at 1 mg/kg, iv measured upto 24 hrs by LC-MS/MS anlaysis; format: ADME, organism-based; conditions: in vivo
measured-quantity: half-life (min)

compound: Cc1c(Br)c(Br)c2c3c1nc(N1CCNCC1)n3CCC2 [SEL-120 FREE BASE]
measured-quantity: half-life
unit-abbrev: min
measured-number: 106
//
compound: FC(F)c1c(Br)c(Br)cc2c1nc(N1CCNCC1)n2C1CCOCC1
measured-quantity: half-life
unit-abbrev: min
measured-number: 152

---

Parameter 'readout' = IC50; parameter 'system' = UniProt Q12809.
Sequence (Q12809 whole entry): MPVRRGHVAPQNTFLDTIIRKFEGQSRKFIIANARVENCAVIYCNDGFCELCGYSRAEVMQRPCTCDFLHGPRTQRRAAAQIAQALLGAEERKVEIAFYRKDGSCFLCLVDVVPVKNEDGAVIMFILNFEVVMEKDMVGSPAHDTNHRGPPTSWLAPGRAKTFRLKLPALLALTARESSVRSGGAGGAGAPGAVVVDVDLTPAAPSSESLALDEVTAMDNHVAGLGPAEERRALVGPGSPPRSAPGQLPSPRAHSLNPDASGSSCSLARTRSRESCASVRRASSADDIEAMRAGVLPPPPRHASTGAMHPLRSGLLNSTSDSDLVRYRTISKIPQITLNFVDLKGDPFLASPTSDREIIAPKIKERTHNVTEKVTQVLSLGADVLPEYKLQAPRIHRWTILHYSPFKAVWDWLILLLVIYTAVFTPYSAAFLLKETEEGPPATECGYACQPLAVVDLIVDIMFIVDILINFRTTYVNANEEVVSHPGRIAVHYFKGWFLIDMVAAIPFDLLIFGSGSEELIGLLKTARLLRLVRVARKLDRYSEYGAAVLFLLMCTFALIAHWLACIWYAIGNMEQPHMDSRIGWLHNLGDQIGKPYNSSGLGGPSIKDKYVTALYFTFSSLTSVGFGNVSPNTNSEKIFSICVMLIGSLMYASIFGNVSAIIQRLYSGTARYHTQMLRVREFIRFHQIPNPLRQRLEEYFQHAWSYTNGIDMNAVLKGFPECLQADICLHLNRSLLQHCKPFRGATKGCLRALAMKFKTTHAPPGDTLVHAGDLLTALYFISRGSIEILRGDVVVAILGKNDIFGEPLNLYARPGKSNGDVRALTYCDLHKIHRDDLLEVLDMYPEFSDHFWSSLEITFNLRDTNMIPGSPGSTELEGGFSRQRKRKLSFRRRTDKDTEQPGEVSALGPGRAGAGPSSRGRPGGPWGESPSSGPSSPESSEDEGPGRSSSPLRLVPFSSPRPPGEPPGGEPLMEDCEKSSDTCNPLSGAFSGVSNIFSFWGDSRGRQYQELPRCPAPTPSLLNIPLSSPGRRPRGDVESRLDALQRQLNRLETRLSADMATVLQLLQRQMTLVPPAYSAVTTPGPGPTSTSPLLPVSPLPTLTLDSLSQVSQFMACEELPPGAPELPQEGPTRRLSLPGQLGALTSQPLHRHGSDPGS

molecule: FC(F)c1c(Br)c(Br)cc2c1nc(N1CCNCC1)n2C1CCOCC1
unit-abbrev: µM
IC50: 5.8
--
molecule: Cc1c(Br)c(Br)c2c3c1nc(N1CCNCC1)n3CCC2 [SEL-120 FREE BASE]
unit-abbrev: µM
IC50: 0.7

---

target: Cyclin-dependent kinase 2/cyclin E1 (Homo sapiens); assay: Inhibition of CDK2/cyclinE1 (unknown origin) by ADP-Glo chemiluminescence assay
pIC50: −log10 of the molar value.
Readings of pIC50 for the listed compounds

compound: Cc1c(Br)c(Br)c2c3c1nc(N1CCNCC1)n3CCC2 [SEL-120 FREE BASE]
pIC50: 9.01
//
compound: FC(F)c1c(Br)c(Br)cc2c1nc(N1CCNCC1)n2C1CCOCC1
pIC50: 7.50

---

biological target: Cyclin-dependent kinase 5/CDK5 activator 1 (Homo sapiens); test: Inhibition of CDK5/p25NCK (unknown origin) by ADP-Glo chemiluminescence assay; assay type: protein-complex assay
Sequence (Q00535 whole entry): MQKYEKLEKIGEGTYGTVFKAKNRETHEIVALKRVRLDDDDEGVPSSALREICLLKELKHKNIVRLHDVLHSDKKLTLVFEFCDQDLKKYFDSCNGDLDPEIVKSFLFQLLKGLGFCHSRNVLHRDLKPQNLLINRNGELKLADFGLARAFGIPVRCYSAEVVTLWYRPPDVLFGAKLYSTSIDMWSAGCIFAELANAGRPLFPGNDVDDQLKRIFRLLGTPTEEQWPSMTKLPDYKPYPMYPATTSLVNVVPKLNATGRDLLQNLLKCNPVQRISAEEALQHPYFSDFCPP
Sequence (Q15078 whole entry, further chain): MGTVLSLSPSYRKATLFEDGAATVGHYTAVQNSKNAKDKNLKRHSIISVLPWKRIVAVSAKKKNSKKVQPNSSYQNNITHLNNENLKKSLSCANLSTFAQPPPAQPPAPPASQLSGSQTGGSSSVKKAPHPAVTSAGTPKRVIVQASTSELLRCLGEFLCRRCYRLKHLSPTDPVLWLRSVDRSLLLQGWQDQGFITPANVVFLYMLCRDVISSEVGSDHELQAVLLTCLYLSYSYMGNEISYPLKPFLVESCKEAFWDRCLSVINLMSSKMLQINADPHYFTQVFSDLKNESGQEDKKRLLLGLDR
Readings of IC50 for the listed compounds

compound: Cc1c(Br)c(Br)c2c3c1nc(N1CCNCC1)n3CCC2 [SEL-120 FREE BASE]
IC50: 0.00166 µM
//
compound: FC(F)c1c(Br)c(Br)cc2c1nc(N1CCNCC1)n2C1CCOCC1
IC50: 0.0874 µM

---

assay: Half-life in mouse at 1 mg/kg, iv measured upto 24 hrs by LC-MS/MS anlaysis; type: ADME, organism-based; settings: in vivo
Readings of half-life for the listed molecules
measured-quantity: half-life (h)

molecule: Cc1c(Br)c(Br)c2c3c1nc(N1CCNCC1)n3CCC2 [SEL-120 FREE BASE]
measured-number: 3.01

molecule: FC(F)c1c(Br)c(Br)cc2c1nc(N1CCNCC1)n2C1CCOCC1
measured-number: 5.04

---

molecular target: CDK2/Cyclin A2 (Homo sapiens, UniProt P24941); experiment: Inhibition of CDK2/cyclinA2 (unknown origin) by ADP-Glo chemiluminescence assay
pIC50: −log10 of the molar value.
measured-quantity: pIC50

compound: Cc1c(Br)c(Br)c2c3c1nc(N1CCNCC1)n3CCC2 [SEL-120 FREE BASE]
study-system: CDK2/Cyclin A2 (Homo sapiens, UniProt P24941)
measured-number: 8.33

compound: FC(F)c1c(Br)c(Br)cc2c1nc(N1CCNCC1)n2C1CCOCC1
study-system: CDK2/Cyclin A2 (Homo sapiens, UniProt P24941)
measured-number: 7.37

---

experiment: Oral bioavailability in dog at 5 mg/kg measured upto 24 hrs by LC-MS/MS analysis; format: ADME, organism-based, Canis lupus familiaris; details: in vivo
measured-quantity: bioavailability (%)

query-smiles: FC(F)c1c(Br)c(Br)cc2c1nc(N1CCNCC1)n2C1CCOCC1
measured-quantity: bioavailability
measured-number: 85

---

Readings of pIC50 for the listed compounds
target: Serine/threonine-protein kinase TAO1 (Homo sapiens, UniProt Q7L7X3); experiment: Inhibition of TAOK1 (unknown origin) by ADP-Glo assay
Sequence (Q7L7X3 whole entry): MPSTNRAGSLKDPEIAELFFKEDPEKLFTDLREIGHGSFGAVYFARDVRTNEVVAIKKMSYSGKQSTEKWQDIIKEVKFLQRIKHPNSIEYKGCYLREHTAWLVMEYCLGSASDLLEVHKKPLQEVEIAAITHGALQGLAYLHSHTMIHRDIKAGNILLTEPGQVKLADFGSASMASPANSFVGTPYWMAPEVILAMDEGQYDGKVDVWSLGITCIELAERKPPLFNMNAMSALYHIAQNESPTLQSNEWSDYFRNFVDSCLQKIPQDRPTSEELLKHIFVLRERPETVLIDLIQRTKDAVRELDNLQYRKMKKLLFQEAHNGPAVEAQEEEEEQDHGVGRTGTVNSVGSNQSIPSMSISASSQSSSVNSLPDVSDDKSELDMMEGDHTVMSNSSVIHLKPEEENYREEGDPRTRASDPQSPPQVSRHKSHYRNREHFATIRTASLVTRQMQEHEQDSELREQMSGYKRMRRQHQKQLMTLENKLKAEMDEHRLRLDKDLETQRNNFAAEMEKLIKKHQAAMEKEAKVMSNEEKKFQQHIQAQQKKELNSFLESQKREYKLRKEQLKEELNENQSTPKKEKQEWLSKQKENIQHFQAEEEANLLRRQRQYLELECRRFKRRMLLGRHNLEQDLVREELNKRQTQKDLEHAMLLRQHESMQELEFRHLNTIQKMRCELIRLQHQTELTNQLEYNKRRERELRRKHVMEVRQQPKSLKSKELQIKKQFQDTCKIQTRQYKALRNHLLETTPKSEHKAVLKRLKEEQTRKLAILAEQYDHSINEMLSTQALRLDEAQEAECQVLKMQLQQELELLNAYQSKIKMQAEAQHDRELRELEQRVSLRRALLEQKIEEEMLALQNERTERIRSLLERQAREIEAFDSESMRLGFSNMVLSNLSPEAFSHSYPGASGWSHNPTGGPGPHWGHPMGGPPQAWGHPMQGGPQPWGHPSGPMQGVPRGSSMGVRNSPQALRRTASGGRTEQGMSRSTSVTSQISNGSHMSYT
pIC50: −log10 of the molar value.

compound: FC(F)c1c(Br)c(Br)cc2c1nc(N1CCNCC1)n2C1CCOCC1
study-system: Serine/threonine-protein kinase TAO1 (Homo sapiens, UniProt Q7L7X3)
relational-operator: =
pIC50: 5.18

compound: Cc1c(Br)c(Br)c2c3c1nc(N1CCNCC1)n3CCC2 [SEL-120 FREE BASE]
study-system: Serine/threonine-protein kinase TAO1 (Homo sapiens, UniProt Q7L7X3)
relational-operator: <
pIC50: 5.00

---

test: AUC(0 to 24 hrs) in dog at 5 mg/kg, po measured upto 24 hrs by LC-MS/MS analysis; type: ADME, organism-based, Canis lupus familiaris; conditions: in vivo

query-smiles: FC(F)c1c(Br)c(Br)cc2c1nc(N1CCNCC1)n2C1CCOCC1
AUC(0-t) at 24 h: 5590 ng·h/mL

---

Readings of pIC50 for the listed molecules
target: Cytochrome P450 1A2 (Homo sapiens); assay: Inhibition of CYP1A2 (unknown origin) preincubated for 30 mins in presence of NADPH; assay type: ADME
pIC50: −log10 of the molar value.

molecule: Cc1c(Br)c(Br)c2c3c1nc(N1CCNCC1)n3CCC2 [SEL-120 FREE BASE]
study-system: Cytochrome P450 1A2 (Homo sapiens)
pIC50: 7.40

molecule: FC(F)c1c(Br)c(Br)cc2c1nc(N1CCNCC1)n2C1CCOCC1
study-system: Cytochrome P450 1A2 (Homo sapiens)
pIC50: 5.34
